Tested on: CCRF-CEM leukemia
Assay: NCI tumour cell line growth inhibition, 48 h
PARAMETER_MEASURED: TGI

Measured TGI, Cc1cc(C)n2c(-c3ccccc3)c(C)cc2n1 : 43.6 µM

Measured TGI, CCCC(N)C(=O)c1ccccc1 (stereo not drawn) : > 100 µM

Measured TGI, COC(=O)C[CH2][Ge]([CH3])([CH3])[S]c1ccccc1 : 24.3 µM

Measured TGI, CCOC(=O)C1C(c2ccc(O)c(OC)c2)c2c([nH][nH]c2=O)CC1(C)O (stereo not drawn) : > 100 µM

Measured TGI, O=C1CCCC(=O)N1n1c(Cc2ccccc2)n[nH]c1=O : > 100 µM

Measured TGI, Nc1c(C(=O)N/N=C/c2ccc(Cl)cc2)sc(=S)n1-c1ccccc1 : > 100 µM

Measured TGI, S=C(N/N=C/c1ccccn1)Nc1ccc(Cl)cc1 : 1.92 µM

Measured TGI, NC1CCC(Nc2nc(NCc3cc(Cl)ccc3O)c3ncn(C4CCCC4)c3n2)CC1 (stereo not drawn) : 0.532 µM

Measured TGI, Clc1nc(Cl)c2c3c(sc2n1)CCCC3 : > 100 µM

Measured TGI, COC(=O)/C=C(/C(=O)OC)c1cc2ccc3c([nH]c4ccccc43)c(C)c-2c1 : 10.8 µM

Measured TGI, CN(C)CC1CCC/C(=C\c2ccc(OC(=O)/C=C/c3ccccc3)cc2)C1=O (stereo not drawn) : 0.808 µM

Measured TGI, O=C1CCCCC=C1C[N+](=O)[O-] : 23.3 µM

Measured TGI, CCC(=O)NC(Nc1cccc(F)c1)(C(F)(F)F)C(F)(F)F : > 100 µM

Measured TGI, Fc1ccc(-c2nn3c(-c4cc(C(F)(F)F)cc(C(F)(F)F)c4)nnc3s2)cc1 : > 50 µM

Measured TGI, NC1(C(=O)O)CCc2ccc(N(CCCl)CCCl)cc2C1 (stereo not drawn) : > 100 µM

Measured TGI, C[C@H](NC(=O)n1c2ccccc2c2ccccc21)C(=O)O : > 100 µM

Measured TGI, COc1cc(/C=C2\Oc3cc(OCCCN4CCCC4)ccc3C2=O)cc(OC)c1 : 10.4 µM

Measured TGI, CCOC(=O)C1=c2[nH]c3cccc4cccc(c43)n2C(=O)CC1c1ccccc1 (stereo not drawn) : > 100 µM

Measured TGI, Cc1cc(=O)n2c3c(c4c(cc13)c(CO)cc(=O)n4C)OC2 : 56.8 µM

Measured TGI, COC(=O)C(CC(C)=O)CS(=O)(=O)CC(=O)C(=O)Nc1cccc([N+](=O)[O-])c1 (stereo not drawn) : > 100 µM

Measured TGI, CC(C)OP(=O)(OC(C)C)c1ccc2c(c1)OCCOCCOCCOCCO2 : > 100 µM

Measured TGI, Cc1ccc(S(=O)(=O)N2c3ccccc3[C@H]3CCC=C[C@H]32)cc1 : > 87.2 µM

Measured TGI, Cc1c(/C=N/NC(=S)Nc2ccccc2)c(=O)n(-c2ccccc2)n1C : > 100 µM

* * *

Tested on: ACHN renal
Assay: NCI tumour cell line growth inhibition, 48 h; in the data active = GI50 below about 0.43 µM; inactive = the rest
Hi! Could you answer with just one of these? active, inactive

stdin: Just curious, what result did NCCCCCCCCCCCn1c2c(c3ccccc3c1=O)C(=O)c1ccccc1-2 get here?
stdout: inactive

stdin: Just curious, what result did C/C(=N\NC(=S)N1CCN(C2CCCCCC2)CC1)c1ccccn1 get here?
stdout: active

stdin: Just curious, what result did CC(=O)[CH-]C(=O)c1ccccc1.CC(=O)[CH-]C(=O)c1ccccc1.CC1(C)OCC(C2OC3OC(C)(C)OC3C2[O-])O1.CC1(C)OCC(C2OC3OC(C)(C)OC3C2[O-])O1.[Ti+4] (stereo not given) get here?
stdout: inactive

stdin: Just curious, what result did Clc1nc(Cl)c2c3c(sc2n1)CCCC3 get here?
stdout: inactive

stdin: Just curious, what result did c1ccc(Nc2nc(-c3ccccn3)cs2)nc1 get here?
stdout: active

stdin: Just curious, what result did COC(=O)C[CH2][Ge]([CH3])([CH3])[S]c1ccccc1 get here?
stdout: inactive

stdin: Just curious, what result did O=c1c2cccc(F)c2sc2c(N3CCNCC3)nc3ccccc3c12 get here?
stdout: inactive

stdin: Just curious, what result did CC(C)(CCN=C(N)Nc1ccccn1)c1ccc(C(F)(F)F)cc1 get here?
stdout: inactive

stdin: Just curious, what result did Nc1nc2c(nnn2C2OC(CO)C(O)C2O)c(=O)[nH]1 (stereo not given) get here?
stdout: active

stdin: Just curious, what result did NC1CCC(Nc2nc(NCc3cc(Cl)ccc3O)c3ncn(C4CCCC4)c3n2)CC1 (stereo not given) get here?
stdout: active

stdin: Just curious, what result did Nc1ccccc1NC(=O)c1ccc(CN2CCC/C(=C\c3ccccn3)C2=O)cc1 get here?
stdout: inactive

stdin: Just curious, what result did COc1ccc(-c2nc(Nc3ccc(-c4nc5ccccc5[nH]4)cc3)nc(N3CCOCC3)n2)cc1 get here?
stdout: inactive

stdin: Just curious, what result did O=C(NNc1ccc(F)cc1)C1CCC(CNS(=O)(=O)c2ccc(Cl)c(Cl)c2)CC1 (stereo not given) get here?
stdout: inactive

stdin: Just curious, what result did O=C(O)C1C2C=CC(C2)C1C(=O)O (stereo not given) get here?
stdout: inactive

stdin: Just curious, what result did C=C1COC(O)(C2OCOC(C3CC(=O)NC(=O)C3)C2O)C1C (stereo not given) get here?
stdout: active

* * *

System: HL-60(TB) leukemia
Experiment: NCI tumour cell line growth inhibition, 48 h; in the data active = GI50 below about 0.43 µM; inactive = the rest
Hi! Could you answer with just one of these? 1 (active), 0 (inactive)

stdin: Just curious, what result did C=C1COC(O)(C2OCOC(C3CC(=O)NC(=O)C3)C2O)C1C (centres undefined) get here?
stdout: 1

stdin: Just curious, what result did Nc1ccccc1NC(=O)c1ccc(CN2CCC/C(=C\c3ccccn3)C2=O)cc1 get here?
stdout: 0

stdin: Just curious, what result did Nc1nc2c(nnn2C2OC(CO)C(O)C2O)c(=O)[nH]1 (centres undefined) get here?
stdout: 0

stdin: Just curious, what result did CC(=O)[CH-]C(=O)c1ccccc1.CC(=O)[CH-]C(=O)c1ccccc1.CC[C@H](/C=C/C(C)[C@H]1CCC2[C@@H]3CC=C4C[C@@H]([O-])CC[C@]4(C)C3CC[C@@]21C)C(C)C.CC[O-].[Ti+4] (some centres undefined) get here?
stdout: 0

stdin: Just curious, what result did CO[C@]12C=C/C(=C(/C(=O)OCc3cccnc3)C(=O)CCCCCCCC[C@@]3(OC)C=C/C(=C(/C(=O)OCc4cccnc4)C(=O)CCCCCCCC1)O3)O2 get here?
stdout: 0

stdin: Just curious, what result did CN(C)CCC=C1c2ccccc2C(C)(C)c2ccccc21 get here?
stdout: 0

stdin: Just curious, what result did COc1ccc(-c2nn(-c3cccc(NC(=O)Nc4ccccc4)c3)cc2-c2ccncc2)cc1Cl get here?
stdout: 0

stdin: Just curious, what result did C=C(C)C1CC=C(C)CC1 (centres undefined) get here?
stdout: 0

stdin: Just curious, what result did O=C(N=Nc1c(O)[nH]c2ccccc12)c1oc2ccccc2c1CN1CCN(c2ccccc2)CC1 get here?
stdout: 0

* * *

Tested on: NCI/ADR-RES ovarian
Experiment: NCI tumour cell line growth inhibition, 48 h
PARAMETER_MEASURED: TGI

Measured TGI, CC[C@@H](C(=O)[C@H](C)[C@H](O)[C@@H](C)[C@H]1O[C@H]([C@@H](CC)C(=O)O)CC[C@H]1C)C1O[C@]2(C=C[C@@H](O)[C@]3(CC[C@@](C)([C@H]4CC[C@](O)(CC)[C@H](C)O4)O3)O2)[C@H](C)C[C@@H]1C (stereo partly drawn) : > 68.2 µM

Measured TGI, CSc1cc(Br)ccc1-n1c(C(=O)c2ccccc2)c(SC)n(-c2ccccc2)c1=O : > 100 µM

Measured TGI, CC1(C)OCC(C2OC(OC(=O)c3ccc([N+](=O)[O-])cc3)C3OC(C)(C)OC23)O1 (stereo not drawn) : > 100 µM

Measured TGI, COc1ccc(P2(=S)SP(=S)(c3ccc(Cl)cc3)S2)cc1 (stereo not drawn) : > 100 µM

Measured TGI, CNc1cc2nc3cc(NC)c(C)cc3cc2cc1C : 9.28 µM

Measured TGI, C[N+](C)(C)/N=C/c1ccc(O)c(O)c1 : > 100 µM

Measured TGI, N#CCOc1ccc(/C=C/C(=O)c2ccc(Cl)cc2)cc1 : 48.5 µM

Measured TGI, COc1cc2c(cc1OC)CN1CCCc3cc(OC)c(OC)cc3C1C2 (stereo not drawn) : > 100 µM

Measured TGI, CCN1C(=O)/C(=C2\SC(c3ccccc3)(c3ccccc3)c3ccccc32)SC1=S : > 100 µM

Measured TGI, O=C(Nc1nc(C23CC4CC(CC(C4)C2)C3)cs1)c1cc2cc(Cl)ccc2oc1=O : > 100 µM

Measured TGI, COC(=O)C(Cc1ccccc1)NP(=O)(O)OCC1OC(n2cc(I)c(=O)[nH]c2=O)CC1O (stereo not drawn) : > 100 µM

Measured TGI, CC1(C)CCCC(C)(C2CCC3(C)C2C(O)CC2C4(C)CCC(O)C(C)(C)C4C(O)CC23C)O1 (stereo not drawn) : 37.4 µM

Measured TGI, C=C1CC[C@@H]2[C@](C)(COC(C)=O)[C@H](OC(C)=O)CC[C@@]2(C)[C@@H]1CC(Nc1ccc(S(=O)(=O)Nc2cc(C)on2)cc1)C1=CCOC1=O (stereo partly drawn) : 12 µM

Measured TGI, NCCCCCCCCCCCn1c2c(c3ccccc3c1=O)C(=O)c1ccccc1-2 : 17.6 µM

Measured TGI, COc1ccc(-c2nnc3n(Cc4ccccc4)c4ccccc4n3c2=O)cc1 : > 100 µM

Measured TGI, CCN(CC)CCOc1ccc(/C=C2\C[C@H]3[C@H]4CC=C5C[C@@H](O)CC[C@]5(C)[C@H]4CC[C@]3(C)[C@H]2O)cc1OC : 22 µM

Measured TGI, CN1CC[C@]2(c3cccc(O)c3)CC(=O)/C(=C/c3ccccc3)[C@H]1C2 : 7.35 µM

Measured TGI, CCCC[n+]1c(/C=C\c2c(OC)cc(OC)cc2OC)ccc2ccccc21 : > 71.9 µM

Data origin, for the record: PubChem BioAssay (NCI)
